- Procedure Text: U-118MG Cancer Cell Toxicity qHTS against the NCATS CANVASS Library (AID 1347351)
- Conditions: U-118MG viability, CellTiter-Glo luminescence, 72 h; series mostly up to 38.3 µM
Results filed as inconclusive are left out. The source made the active and inactive calls. Calls follow the shape of the dose curve; as a rule, active = well fitted cell-killing curve with a large enough effect; inconclusive = small, poorly fitted or top-dose-only effect; inactive = flat fitted curve, though single readings scatter.
Labels: active, inactive

1. O=C1CC(c2ccc(O)cc2)Oc2ccccc21 (stereo not drawn); inactive
2. C[C@@]12C[C@@H](C[C@@H]3C(=O)O[C@@H](c4ccoc4)[C@H](OC(=O)c4ccccc4)[C@@H]31)OC2=O; inactive
3. C=C[C@@]1(C)CC[C@@H]([C@H](C)C(C)=O)O1; inactive
4. CCC(=O)CCCCC[C@@H]1NC(=O)[C@H]2CCCCN2C(=O)[C@H](C(C)C)NC(=O)[C@H](Cc2cn(OC)c3ccccc23)NC1=O; active
5. C[C@@]1(CCC(=O)Nc2c(O)ccc(C(=O)O)c2O)C(=O)C=C[C@]23C[C@H]4C[C@H](O[C@@]4(C)C2)C31 (stereo partly drawn); inactive
6. COC(=O)c1cc2cc3c(c(O)c2c(=O)o1)OC1(CC3)CC2=C(O1)C(=O)c1c(O)c(OC)cc(OC)c1C2=O (stereo not drawn); inactive
7. C/C(=C\[C@@H](C)CC/C=C/CC/C=C/C(=O)O)[C@@H](O)[C@H](C)C(=O)CCCC1CC(=O)NC(=O)C1; inactive
8. COC(=O)[C@]1([C@H]2CCC(=O)O2)CC(=O)c2c(O)cc(C)cc2O1; inactive
